# target.of.assay: RanGTP-importin-beta complex (human Ran / KPNB1)
# assay.overview: disruptors of RanGTP/KPNB1 binding – biochemical, FRET, CFP/YFP, cell-free homogeneous, confirmation (AID 2823)
# condition.label: CFP-Ran/YFP-importin-beta FRET ratio
Active and inactive are the calls of the source. The rule behind the calls is not given here.
The reply should be one of these categories: true = active, false = inactive

Qu. # fetch the recorded call for O=C(NC1CC1)c1ccc2c(Cl)c3c(nc2c1)CCCC3 here
Ans. false

Qu. Name the outcome recorded for CCOc1ccc(NC(=O)CN2C(=O)COc3ccc(Cl)cc32)cc1 in the assay.
Ans. false

Qu. Check the results log: what was the call for CCCn1nc(NC(=O)CC(C)C)c2cc3cccc(C)c3nc21 ?
Ans. true

Qu. Outcome? COc1cccc(NC(=O)CSc2ncc(S(=O)(=O)c3ccccc3)c(=O)[nH]2)c1
Ans. false

Qu. What was the test verdict on CO/N=C\c1cc(C(=O)c2ccc(Cl)cc2Cl)cn1C ?
Ans. false

Qu. Hello, I am checking results. What call was entered for CCc1ccc(C2C3=C(CC(C)(C)CC3=O)Nc3c2c(=O)[nH]c2nc(C)nn32)cc1 (stereo unspecified) ?
Ans. true

Qu. For this compound, state the assay outcome: COc1ccc(C(=O)C[n+]2ccc(N)c(C)c2C)cc1
Ans. false

Qu. Name the outcome recorded for CC(NC(=O)/C(C#N)=C/c1ccc(N2CCOCC2)cc1)c1ccccc1 (stereo unspecified) in the assay.
Ans. true

Qu. Any idea what this test logged for CCCCn1c(NC(=O)c2ccc(Br)o2)c(S(=O)(=O)c2ccccc2)c2nc3ccccc3nc21 ?
Ans. true

Qu. Name the outcome recorded for Cc1ccc(-c2c(C(=O)N/N=C/c3ccc4c(c3)OCO4)nnn2-c2nonc2N)cc1 in the assay.
Ans. false

Qu. What is the recorded call for this compound in the test? COC(=O)c1cc2c(ccn2C)n1C
Ans. false

Qu. What classification did COC(=O)c1ccc(NC(=O)C(=O)N2CCN(C(=S)Nc3ccccc3OC)CC2)cc1 end up with in this test?
Ans. false

Qu. // return assay outcome for O=c1c2ccccc2sc2ccc(C#CC3(O)CCCCC3)cc12
Ans. true

Qu. Identify the outcome logged in this assay for the compound shown: O=C(O)C1CCCC2CN3CCc4c([nH]c5ccccc45)C3C(O)C21 (stereo unspecified)
Ans. false

Qu. What did the test return for CN(C)c1nc(-c2ccccc2)cc(C(F)(F)F)c1C#N ?
Ans. true

Qu. Could you check what this test reported for CCN1C(=O)C2(C(C#N)=C(N)Oc3n[nH]c(C(C)C)c32)c2ccccc21 (stereo unspecified) ?
Ans. false

Qu. Name the outcome recorded for COc1ccc(Br)cc1/C=C/C(=O)NC(=S)Nc1ccc(CN2CCOCC2)cc1 in the assay.
Ans. false

Qu. Tell me the recorded outcome of this test for O=C(O)c1ccccc1C(=O)Nc1ccc(Br)c2cccnc12 .
Ans. false

Qu. Tell me the assay call for O=C(c1cc2c(=O)n3ccccc3nc2s1)N1CCN(c2cccc(Cl)c2)CC1 please.
Ans. false

Qu. Which outcome did this test record for the compound Cc1sc(NC(=O)c2ccccc2)c(C#N)c1-c1ccccc1 ?
Ans. false

Qu. Which result was noted for this compound in the test: COc1ccc(C2NC(=S)NC3=C2CCCC3=C2SCCS2)cc1 (stereo unspecified)
Ans. false

Qu. Fill in: this test's call for COC(=O)c1sccc1NC(=O)c1csc(C)c1 is ___
Ans. false

Qu. Give the logged outcome of this assay for the following compound: Cc1nn(C)c(Oc2ccc(Cl)cc2)c1C(=O)O
Ans. false

Qu. Please share the test call associated with C/C(=N\NC(=O)c1c(C)nc2ccccn12)c1ccc(O)cc1O .
Ans. false

Qu. Hi, do you know how COc1cccc(C(=O)c2cc3ccc(O)cc3oc2=O)c1 came out in this test?
Ans. true

Qu. Hello, I am checking results. What call was entered for CC(C)CCNC(=O)C(c1ccco1)N(Cc1ccccc1)C(=O)c1snc(C(N)=O)c1N (stereo unspecified) ?
Ans. false

Qu. Test call for this compound, please: O=C(Nc1cccc(F)c1)c1ccc(S(=O)(=O)NCC2CCCO2)cc1 (stereo unspecified)
Ans. false

Qu. Hello, I am checking results. What call was entered for O=C(c1ccc(Br)cc1)c1cc2ccc(O)cc2oc1=O ?
Ans. true

Qu. Record lookup: outcome of this test for COc1ccccc1CNC(=O)COC(=O)Cc1ccc(Cl)cc1 ?
Ans. false

Qu. Outcome logged for CC1(C)CC(=O)CC(=Nc2ccc3[nH]c(=O)[nH]c3c2)C1 in this assay:
Ans. false

Qu. Call for entry COc1cc(S(=O)(=O)NCCCN2CCOCC2)ccc1Cl :
Ans. false

Qu. Hello, I am checking results. What call was entered for COC(=O)c1c(NC(NC(=O)c2ccccc2)(C(F)(F)F)C(F)(F)F)sc2c1CCN(C)C2 ?
Ans. true

Qu. Hi, do you know how CCCn1c(=N)c(C(=O)NCc2ccc3c(c2)OCO3)cc2c(=O)n3cccc(C)c3nc21 came out in this test?
Ans. true

Qu. How did this test come out for O=C(Oc1c(CN2CCOCC2)cc(Cl)c2cccnc12)c1ccccc1 ?
Ans. false

Qu. What outcome does the record of this test show for Cc1cccc2cc(C#N)c(NCCCn3ccnc3)nc12 ?
Ans. true

Qu. Which outcome did this test record for the compound Cc1ccc(Nc2nc(N)[nH]c(=O)c2N=O)cc1 ?
Ans. true
